Origin of measurements: PubChem BioAssay AID1347420

- Target Desc: Sulfhydryl oxidase 1 (Homo sapiens) (UniProt O00391)
- Sequence (O00391 whole entry, looked up): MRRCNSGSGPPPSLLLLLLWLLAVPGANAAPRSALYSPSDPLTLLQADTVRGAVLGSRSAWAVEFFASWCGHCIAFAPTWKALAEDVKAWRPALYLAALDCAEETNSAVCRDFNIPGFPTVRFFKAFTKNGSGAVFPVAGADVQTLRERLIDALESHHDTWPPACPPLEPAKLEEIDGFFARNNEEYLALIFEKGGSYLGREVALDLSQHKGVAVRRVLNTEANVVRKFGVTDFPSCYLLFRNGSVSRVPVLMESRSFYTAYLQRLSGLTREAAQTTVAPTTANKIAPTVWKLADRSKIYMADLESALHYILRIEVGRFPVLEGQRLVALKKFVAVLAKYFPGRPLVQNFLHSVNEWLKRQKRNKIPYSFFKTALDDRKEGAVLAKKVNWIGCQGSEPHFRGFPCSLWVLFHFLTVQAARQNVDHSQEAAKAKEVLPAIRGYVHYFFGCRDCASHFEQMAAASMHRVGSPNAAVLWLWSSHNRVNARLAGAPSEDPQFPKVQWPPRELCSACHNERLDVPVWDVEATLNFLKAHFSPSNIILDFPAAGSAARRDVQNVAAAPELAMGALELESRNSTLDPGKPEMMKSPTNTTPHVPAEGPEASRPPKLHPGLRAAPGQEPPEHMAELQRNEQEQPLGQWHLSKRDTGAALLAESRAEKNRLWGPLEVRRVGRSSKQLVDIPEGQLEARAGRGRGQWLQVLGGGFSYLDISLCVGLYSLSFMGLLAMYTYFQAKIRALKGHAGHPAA
- Test Protocol: inhibition of human sulfhydryl oxidase QSOX1 – biochemical, HyperBlu H2O2 luminescence, HTS, primary screen (AID 1347420); note: values above 100% were filed as inconclusive
- Condition Set: recombinant QSOX1, HyperBlu H2O2 luminescence; at 12.5 µM; stronger effect = higher value; active = any value above zero
Out of some 1,300 compounds screened, about 980 (75%) were called active. Inconclusive results (about 4%) are left out. The list shows a part of the results.
Result Type: inhibition (%)
Answers are plain numbers, in %.

Some compounds with known inhibition results, for comparison:
# Compound, Target Desc, Result Type, Recorded Result
rows = [
    ("CC(C)NC[C@H](O)c1ccc(O)c(O)c1", "Sulfhydryl oxidase 1 (Homo sapiens) (UniProt O00391)", "inhibition", 38.5),
    ("CC(C)(Oc1ccc(CCNC(=O)c2ccc(Cl)cc2)cc1)C(=O)O", "Sulfhydryl oxidase 1 (Homo sapiens) (UniProt O00391)", "inhibition", 5.4),
]

Go through the items and report each one's inhibition.
1. COc1ccc2cc([C@H](C)C(=O)O)ccc2c1
2. COc1cc2nc(N(C)CCCNC(=O)C3CCCO3)nc(N)c2cc1OC (centres undefined)
3. C=CCc1cccc(/C=N/NC(=O)CN2CCN(Cc3ccccc3)CC2)c1O

Result:
-13.9
0.2
1.7

* * *

Can you tell me inhibition for the items I'm about to list?
- Target Desc: Sulfhydryl oxidase 1 (Homo sapiens) (UniProt O00391)
- Test Protocol: inhibition of human sulfhydryl oxidase QSOX1 – biochemical, HyperBlu H2O2 luminescence, HTS, primary screen (AID 1347420); note: values above 100% were filed as inconclusive
- Condition Set: recombinant QSOX1, HyperBlu H2O2 luminescence; at 12.5 µM; stronger effect = higher value; active = any value above zero
In all, about 1,300 compounds went through this assay and about 980 (75%) were called active. Not shown: some 4% with an inconclusive outcome. The list shows a part of the results.
Numbers only, in %.

# Compound, Recorded Result
rows = [
    ("O=C(c1ccc(OCCCc2cnc[nH]2)cc1)C1CC1", 8),
]

Go through the items and report each one's inhibition.
1. COc1ccc2c(c1)c(CC(=O)O)c(C)n2Cc1ccc(Cl)cc1
2. CCCOC(=O)c1c(-c2ccccc2)nc(CC)c(C(=O)SCC)c1CCC
3. Nc1ncnc2c1ncn2C1CCCC1
4. O=C1N(c2ccccc2)c2ccccc2C1(Cc1ccncc1)Cc1ccncc1
5. C[C@H](CS)C(=O)N1CCC[C@H]1C(=O)O

Result:
5.8
-2.7
12.4
7.6
-8.3

* * *

- Target Desc: Sulfhydryl oxidase 1 (Homo sapiens) (UniProt O00391)
- Test Protocol: inhibition of human sulfhydryl oxidase QSOX1 – biochemical, HyperBlu H2O2 luminescence, HTS, primary screen (AID 1347420); note: values above 100% were filed as inconclusive
- Condition Set: recombinant QSOX1, HyperBlu H2O2 luminescence; at 12.5 µM; stronger effect = higher value; active = any value above zero
Screen size: about 1,300 compounds; about 980 (75%) were called active. Inconclusive results (about 4%) are left out. The list shows a part of the results.
Result Type: inhibition (%)
Give bare numbers, in %.

Some molecules with known inhibition results, for comparison:
# Molecule, Unit Of Measure, inhibition
measured = [
    ("Cc1cc(NC2CCCCC2)nc(-n2nc(C)cc2C)n1", "%", 6.3),
    ("CN(C)CCCN1c2ccccc2CCc2ccccc21", "%", 31.8),
    ("NC(=Nc1ccccc1)NC(=O)c1nc(Cl)c(N)nc1N", "%", 13.3),
    ("NCCS(=O)O", "%", 4.2),
    ("O=[N+]([O-])c1ccc(-c2nc(-c3ccc(F)cc3)c(-c3ccncc3)[nH]2)cc1", "%", 92.4),
    ("CNc1ncnc2c1ncn2[C@@H]1O[C@H](CO)[C@H](O)C1O (stereo partly specified)", "%", 12),
    ("C/C(=C\\c1ccc(C(=O)O)cc1)c1ccc2c(c1)C(C)(C)CCC2(C)C", "%", 5.8),
    ("C[C@@H]1C(=O)NC2=Nc3cccc(Cl)c3CN21", "%", 3.4),
    ("CC(CN(C)C)CN1c2ccccc2CCc2ccccc21 (stereo unspecified)", "%", 29.4),
    ("CC(=O)O[C@]1(C(C)=O)CC[C@H]2[C@@H]3C=C(Cl)C4=CC(=O)[C@@H]5C[C@@H]5[C@]4(C)[C@H]3CC[C@@]21C", "%", -5.1),
]

// inhibition lookup, molecule = OC[C@H]1O[C@@H](n2cnc3c(NC4CCCC4)ncnc32)C(O)[C@H]1O (stereo partly specified) , result: 4
